Test: Displacement of [3H]glutamic acid from rat brain unspecified glutamate receptor by competitive binding assay
MEASURED QUANTITY: EC50 (µM)
Numbers only; they are read as µM.

Record O=C(O)C[C@H]1CNN[C@@H]1C(=O)O (relative stereo) . Reported EC50: 12
